In this section we review reported viability, T/C values for a set of molecules.
System: 699152-130-R-J1-PDC complex spheroid growth
Test: Anticancer human tumor 699152-130-R-J1-PDC patient-derived pancreatic carcinoma cell line growth inhibition [AhR]
Settings: second compound 10 µM; first compound 0.0316 µM; stronger effect = lower value

Record excerpt, results attached:
# Molecule, Measured Target, viability, T/C
rows = [
    ("CC1COCCN1c1cc(-c2ccnn2C)c2ccnc(-c3ccn[nH]3)c2n1 (stereo not drawn) + Cc1ccccc1N=Nc1ccc(NC(=O)c2ccnn2C)c(C)c1", "699152-130-R-J1-PDC complex spheroid growth", "103%"),
    ("COc1ccc([C@@H](O)c2cc(-c3ncnc4cc(N5CCOCC5)ccc34)c(F)cc2Cl)nn1 + Cc1ccccc1N=Nc1ccc(NC(=O)c2ccnn2C)c(C)c1", "699152-130-R-J1-PDC complex spheroid growth", "107%"),
]

Q) Short answer please: viability, T/C, 699152-130-R-J1-PDC complex spheroid growth, entry COc1cccc2c1C(=O)c1c(O)c3c(c(O)c1C2=O)CC(O)(C(=O)CO)CC3OC1CC(N)C(O)C(C)O1 (stereo not drawn) + CC(CO)NC(=O)c1cc(-c2ccc(Cl)cc2)nn(-c2cnn(C)c2)c1=O
A) 73.4%

###

Listed here are molecules together with their documented viability, T/C.
System: 699152-130-R-J1-PDC complex spheroid growth
Assay: Anticancer human tumor 699152-130-R-J1-PDC cell line growth inhibition [AhR];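 also: compound exposure lasted 7 days after spheroids had grown for 3 days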
Details: second compound 0.1 µM; first compound 0.0316 µM; stronger effect = lower value
Field format: number, assumed %, no unit text.

Some entries whose results are on file:
# Molecule, viability, T/C (%)
records = [
    ("CC1COCCN1c1cc(-c2ccnn2C)c2ccnc(-c3ccn[nH]3)c2n1 (stereo not given) + CC(CO)NC(=O)c1cc(-c2ccc(Cl)cc2)nn(-c2cnn(C)c2)c1=O", 112),
    ("O=C(C=Cc1cccc(S(=O)(=O)Nc2ccccc2)c1)NO + Cc1cncc(-c2nc(NCCc3c[nH]c4ccccc34)c3ncn(C(C)C)c3n2)c1", 110),
    ("CC(C)c1c(-c2ccccc2)nc2c(C#N)c[nH]n2c1=O + Cc1cncc(-c2nc(NCCc3c[nH]c4ccccc34)c3ncn(C(C)C)c3n2)c1", 98.9),
    ("COc1cccc2c1C(=O)c1c(O)c3c(c(O)c1C2=O)CC(O)(C(=O)CO)CC3OC1CC(N)C(O)C(C)O1 (stereo not given) + Cc1cncc(-c2nc(NCCc3c[nH]c4ccccc34)c3ncn(C(C)C)c3n2)c1", 67.3),
]

Q) Query viability, T/C on 699152-130-R-J1-PDC complex spheroid growth for O=C(C=Cc1cccc(S(=O)(=O)Nc2ccccc2)c1)NO + Cc1ccccc1N=Nc1ccc(NC(=O)c2ccnn2C)c(C)c1
A) 91.2

###

This listing pairs compounds with measured IC50.
Tested on: 699152-130-R-J1-PDC complex spheroid growth
Assay: Anticancer human tumor 699152-130-R-J1-PDC cell line growth inhibition [AhR];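 also: compound exposure lasted 7 days after spheroids had grown for 3 days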
Details: curve of first compound; second compound 10 µM

# Compound, IC50
records = [
    ("Nc1ccccc1NC(=O)c1ccc(CNC(=O)OCc2cccnc2)cc1 + CC(CO)NC(=O)c1cc(-c2ccc(Cl)cc2)nn(-c2cnn(C)c2)c1=O", "6070 nM"),
    ("CCc1c2c(nc3ccc(O)cc13)-c1cc3c(c(=O)n1C2)COC(=O)[C@]3(O)CC + Cc1ccccc1N=Nc1ccc(NC(=O)c2ccnn2C)c(C)c1", "44.4 nM"),
    ("CCc1c2c(nc3ccc(O)cc13)-c1cc3c(c(=O)n1C2)COC(=O)[C@]3(O)CC + CC(CO)NC(=O)c1cc(-c2ccc(Cl)cc2)nn(-c2cnn(C)c2)c1=O", "47.3 nM"),
    ("Cn1ncnc1C1c2n[nH]c(=O)c3cc(F)cc(c23)NC1c1ccc(F)cc1 (configuration not stated) + Cc1ccccc1N=Nc1ccc(NC(=O)c2ccnn2C)c(C)c1", "> 100 nM"),
    ("O=C(C=Cc1cccc(S(=O)(=O)Nc2ccccc2)c1)NO + CC(CO)NC(=O)c1cc(-c2ccc(Cl)cc2)nn(-c2cnn(C)c2)c1=O", "> 10000 nM"),
]

Q) I am curious: what IC50 value has been reported for COc1cc(C2c3cc4c(cc3C(OC3OC5COC(C)OC5C(O)C3O)C3COC(=O)C23)OCO4)cc(OC)c1O (configuration not stated) + Cc1cncc(-c2nc(NCCc3c[nH]c4ccccc34)c3ncn(C(C)C)c3n2)c1 ?
A) < 31.6 nM

Q) Bench note: what IC50 did O=C(c1cc(Cc2n[nH]c(=O)c3ccccc23)ccc1F)N1CCN(C(=O)C2CC2)CC1 + Cc1ccccc1N=Nc1ccc(NC(=O)c2ccnn2C)c(C)c1 show?
A) > 10000 nM

###

Examples of molecules with documented IC50 follow.
System: 699152-130-R-J1-PDC complex spheroid growth
Assay: Anticancer human tumor 699152-130-R-J1-PDC cell line growth inhibition [AhR];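 also: compound exposure lasted 7 days after spheroids had grown for 3 days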
Conditions: curve of first compound; second compound 3.16 µM
From the text: Multicellular complex tumor spheroid response to aryl hydrocarbon receptor antagonists in combination with a variety of drugs and investigational agents in selected tumor cell lines […] Compounds. […] If the clinical Cmax for an agent had not been determined, the highest concentration tested was 10 microM (Table 1). […]

# Molecule, IC50
data = [
    ("Nc1ncn(C2CC(O)C(CO)O2)c(=O)n1 (stereo not drawn) + Cc1ccccc1N=Nc1ccc(NC(=O)c2ccnn2C)c(C)c1", "> 1000 nM"),
    ("COc1cc(Nc2ncc3c(n2)-c2ccc(Cl)cc2C(c2c(F)cccc2OC)=NC3)ccc1C(=O)O + CC(CO)NC(=O)c1cc(-c2ccc(Cl)cc2)nn(-c2cnn(C)c2)c1=O", "> 10000 nM"),
]

Now for a further molecule.
Q) Tell me the measured IC50 of CC1COCCN1c1cc(-c2ccnn2C)c2ccnc(-c3ccn[nH]3)c2n1 (stereo not drawn) + CC(CO)NC(=O)c1cc(-c2ccc(Cl)cc2)nn(-c2cnn(C)c2)c1=O , please.
A) > 1000 nM

###

Tested on: 699152-130-R-J1-PDC complex spheroid growth
Test: Anticancer human tumor 699152-130-R-J1-PDC cell line growth inhibition [AhR];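 also: compound exposure lasted 7 days after spheroids had grown for 3 days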
Conditions: second compound 0.316 µM; first compound 0.1 µM; stronger effect = lower value
Outcome Measure: viability, T/C (%)
Respond with the bare value in %.

Example entries begin here.
# Compound, Measured Target, viability, T/C [%]
rows = [
    ("COc1cc(C2c3cc4c(cc3C(OC3OC5COC(C)OC5C(O)C3O)C3COC(=O)C23)OCO4)cc(OC)c1O (stereo not drawn) + Cc1cncc(-c2nc(NCCc3c[nH]c4ccccc34)c3ncn(C(C)C)c3n2)c1", "699152-130-R-J1-PDC complex spheroid growth", 89.5),
    ("COc1ccc([C@@H](O)c2cc(-c3ncnc4cc(N5CCOCC5)ccc34)c(F)cc2Cl)nn1 + Cc1ccccc1N=Nc1ccc(NC(=O)c2ccnn2C)c(C)c1", "699152-130-R-J1-PDC complex spheroid growth", 91.8),
]

Next compound, viability, T/C to be filled in.
Q) Any idea what its viability, T/C is? The compound is COc1ccc([C@@H](O)c2cc(-c3ncnc4cc(N5CCOCC5)ccc34)c(F)cc2Cl)nn1 + CC(CO)NC(=O)c1cc(-c2ccc(Cl)cc2)nn(-c2cnn(C)c2)c1=O
A) 90.2

###

System: 699152-130-R-J1-PDC complex spheroid growth
Assay: Anticancer human tumor 699152-130-R-J1-PDC cell line growth inhibition [AhR];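 also: compound exposure lasted 7 days after spheroids had grown for 3 days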
Details: second compound 1 µM; first compound 3.16 µM; stronger effect = lower value
Outcome Measure: viability, T/C

For orientation, consider the following solved cases.
# Compound, Measured Target, Outcome Measure, Reading
rows = [
    ("Nc1ccccc1NC(=O)c1ccc(CNC(=O)OCc2cccnc2)cc1 + Cc1ccccc1N=Nc1ccc(NC(=O)c2ccnn2C)c(C)c1", "699152-130-R-J1-PDC complex spheroid growth", "viability, T/C", "76.6%"),
    ("O=C(C=Cc1cccc(S(=O)(=O)Nc2ccccc2)c1)NO + Cc1cncc(-c2nc(NCCc3c[nH]c4ccccc34)c3ncn(C(C)C)c3n2)c1", "699152-130-R-J1-PDC complex spheroid growth", "viability, T/C", "96.6%"),
    ("COc1cc(C2c3cc4c(cc3C(OC3OC5COC(C)OC5C(O)C3O)C3COC(=O)C23)OCO4)cc(OC)c1O (stereo unspecified) + CC(CO)NC(=O)c1cc(-c2ccc(Cl)cc2)nn(-c2cnn(C)c2)c1=O", "699152-130-R-J1-PDC complex spheroid growth", "viability, T/C", "53.2%"),
]

Q) Entry CC(C)c1c(-c2ccccc2)nc2c(C#N)c[nH]n2c1=O + CC(CO)NC(=O)c1cc(-c2ccc(Cl)cc2)nn(-c2cnn(C)c2)c1=O has what viability, T/C?
A) 85.5%

Q) Need viability, T/C of O=C(c1cc(Cc2n[nH]c(=O)c3ccccc23)ccc1F)N1CCN(C(=O)C2CC2)CC1 + Cc1ccccc1N=Nc1ccc(NC(=O)c2ccnn2C)c(C)c1 , thanks.
A) 88.6%

Q) Please report the recorded viability, T/C for CC1(C)CCC(CN2CCN(c3ccc(C(=O)NS(=O)(=O)c4ccc(NCC5CCOCC5)c([N+](=O)[O-])c4)c(Oc4cnc5[nH]ccc5c4)c3)CC2)=C(c2ccc(Cl)cc2)C1 + CC(CO)NC(=O)c1cc(-c2ccc(Cl)cc2)nn(-c2cnn(C)c2)c1=O .
A) 95.4%
